Tested on: HCT-15 colon
Test Details: NCI tumour cell line growth inhibition, 48 h

Compound String	TGI
CCCCc1ccc2nc(NC(=O)OC)[nH]c2c1	> 95.2 µM
CCOC(=O)c1ccc(-c2cc(C)[nH]n2)[nH]1	> 100 µM
O=C1CCC/C=C\C[C@H]2C=C(Cl)C(=O)/C2=C/C[C@H](CCCCC(F)(F)F)OC(=O)CCC/C=C\C[C@H]2C=C(Cl)C(=O)/C2=C/C[C@H](CCCCC(F)(F)F)O1	1.32 µM
Cc1c(-c2ccccc2)c(C#N)c2nnn(-c3ccccc3)c(=O)n12	> 100 µM

---

System: EKVX NSCLC
Test Details: NCI tumour cell line growth inhibition, 48 h
// TGI lookup, one value per entry

Compound	Comparator	TGI, µM
CCCCN(CCCC)C(=Nc1ccccc1)N(CCCC)CCCC	=	17.5
COc1cc2c(cc1OC)C1CN3C(=O)CCC3C(O)C1c1cc(OC)c(OC)cc1-2 (centres undefined)	>	100
CCN1CCN(C(=O)[C@]23CC[C@@H](C)[C@H](C)[C@@H]2C2=CC[C@@H]4[C@@]5(C)C/C(=C/c6cccnc6)C(=O)C(C)(C)[C@@H]5CC[C@@]4(C)[C@]2(C)CC3)CC1	=	7.32
COc1cc[c]([Hg][Cl])cc1	=	22.8
COCn1c2ccc(OC(C)=O)cc2c2c(=O)oc(C)nc21	>	100
COc1ccc(CN(O)C2C(CO)OC(n3cc(I)c(=O)[nH]c3=O)C2O)cc1 (centres undefined)	>	100
COC12C=C/C(=C(/C(=O)OCc3ccncn3)C(=O)CCCCCCCCC3(OC)C=C/C(=C(/C(=O)OCc4ccncn4)C(=O)CCCCCCCC1)O3)O2	=	2.34
CC(=O)OCC1OC(n2cc(F)c(=O)[nH]c2=O)C(OC(C)=O)C1OC(C)=O (centres undefined)	>	100
Cc1ccc(CCC(=O)Nc2ncc(Cc3cc(Cl)ccc3Cl)s2)o1	>	100

Each recorded value in this set is attributed to PubChem BioAssay (NCI).
